- assay system: T1, human 2Ig-B7H3 (B7H3-2Ig-His) (human, UniProt Q5ZPR3 29-466)
- T1 construct: Recombinant His-tagged protein immobilised on a CM5 chip; also called 21g-B7H3; B7H3-21g-His; not shown: His tag
- T1 sequence: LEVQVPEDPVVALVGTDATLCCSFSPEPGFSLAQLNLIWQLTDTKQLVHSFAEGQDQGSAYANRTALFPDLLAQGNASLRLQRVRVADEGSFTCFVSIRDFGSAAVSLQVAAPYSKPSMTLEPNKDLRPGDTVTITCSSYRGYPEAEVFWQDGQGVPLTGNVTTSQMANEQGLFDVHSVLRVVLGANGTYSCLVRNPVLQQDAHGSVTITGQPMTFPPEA
- method summary: SPR
reported property: t ½ (h)
Please respond with the number in h and leave the unit unwritten.

Lab note: 8H9 antibody conjugated with p-SCN-Bn-CHX-A″-DTPA, CAR 6.1 (antibody, mouse IgG1, kappa, V domains shown, p-SCN-Bn-CHX-A″-DTPA conjugated, CAR 6.1 per antibody; sites not stated, Chelator conjugate, not metal-labelled) VH: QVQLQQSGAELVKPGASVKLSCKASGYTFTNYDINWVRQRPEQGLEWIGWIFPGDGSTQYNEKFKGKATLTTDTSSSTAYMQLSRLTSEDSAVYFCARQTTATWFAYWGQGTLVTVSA VL: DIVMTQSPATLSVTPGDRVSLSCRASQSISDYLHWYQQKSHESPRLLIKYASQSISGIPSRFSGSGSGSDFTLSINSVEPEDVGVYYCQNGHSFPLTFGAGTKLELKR gave t ½ of 0.394

Lab note: 8H9 antibody conjugated with p-SCN-Bn-CHX-A″-DTPA, CAR 3.6 (antibody, mouse IgG1, kappa, V domains shown, p-SCN-Bn-CHX-A″-DTPA conjugated, CAR 3.6 per antibody; sites not stated, Chelator conjugate, not metal-labelled) VH: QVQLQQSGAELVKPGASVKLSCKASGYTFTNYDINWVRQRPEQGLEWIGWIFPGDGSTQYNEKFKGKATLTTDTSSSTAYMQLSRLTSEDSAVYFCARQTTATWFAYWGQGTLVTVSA VL: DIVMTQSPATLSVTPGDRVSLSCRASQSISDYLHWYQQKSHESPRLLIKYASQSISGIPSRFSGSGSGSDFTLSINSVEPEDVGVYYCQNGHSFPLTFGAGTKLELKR gave t ½ of 1.25

Lab note: 8H9 antibody conjugated with p-SCN-Bn-CHX-A″-DTPA, CAR 0.6 (antibody, mouse IgG1, kappa, V domains shown, p-SCN-Bn-CHX-A″-DTPA conjugated, CAR 0.6 per antibody; sites not stated, Chelator conjugate, not metal-labelled; also called conj-CHX-A″-DTPA (CAR0.6)) VH: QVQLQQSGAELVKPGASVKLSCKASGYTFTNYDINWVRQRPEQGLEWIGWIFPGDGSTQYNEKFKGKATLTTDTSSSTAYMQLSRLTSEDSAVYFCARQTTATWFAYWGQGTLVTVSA VL: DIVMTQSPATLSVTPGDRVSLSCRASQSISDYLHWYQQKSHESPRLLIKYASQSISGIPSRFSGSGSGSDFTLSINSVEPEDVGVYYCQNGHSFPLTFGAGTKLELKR gave t ½ of 5.72

Lab note: 8H9 antibody conjugated with p-SCN-Bn-CHX-A″-DTPA, CAR 1.4 (antibody, mouse IgG1, kappa, V domains shown, p-SCN-Bn-CHX-A″-DTPA conjugated, CAR 1.4 per antibody; sites not stated, Chelator conjugate, not metal-labelled) VH: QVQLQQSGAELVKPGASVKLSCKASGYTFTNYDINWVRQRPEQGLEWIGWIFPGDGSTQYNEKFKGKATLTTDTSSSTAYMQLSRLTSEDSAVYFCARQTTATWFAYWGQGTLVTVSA VL: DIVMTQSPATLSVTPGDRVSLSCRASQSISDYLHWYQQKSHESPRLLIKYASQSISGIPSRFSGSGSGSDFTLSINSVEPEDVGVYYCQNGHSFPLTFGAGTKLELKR gave t ½ of 3.94
